Data provenance: patent US20240043533A1

Biological target: T1, extracellular domain of human ILT3 (huILT3-ECD) (human, UniProt Q8NHJ6 22-259)
T1 construct: also called human ILT3-ECD
Test: SPR (Biacore), antibody captured via anti-Fc on CM5 chip, soluble ILT3-ECD injected, 37 C
Experimental: The binding affinities of anti-ILT3 antibodies to human ILT3 and cyno ILT3 were measured using a Biacore system (GE Healthcare LifeSciences). Briefly, anti-Fc antibody (Sigma-Aldrich) was immobilized on all four flow cells of a CM5 chip using amine coupling reagents (GE Healthcare LifeSciences). Antibodies were captured on flow cells 2, 3, and 4 using flow cell 1 as a reference. Concentrations ranging from 3.3-10 nM of human or cyno ILT3-ECD were injected at a flow rate of 50 μL/min at 37° C. […]
measured.parameter: koff (s⁻¹)
Just the number please, in s⁻¹, no unit attached.

Q: Would you kindly share the measured koff for anti-ILT3 antibody 12A12 (antibody, V domains shown, Mouse monoclonal antibody from hybridoma) VH: EVQLQQSGPELVKPGASVKISCKASGYTFTDYNMDWVKQSHGKSLEWIGYIYPNNGGTGYNQKFNSKATLTVDKSSSTAYMELHSLTSEDSAVYYCASSPYYDYVGSYAMDYWGQGTSVTVSS VL: QIVLTQSPAIMSASLGERVTMTCTASSSVSSSYLHWYQQKPGSSPKLWIYSTSNLASGVPARFSGSGSGTSYSLTISSMEAEDAATYYCHQYHRSPRTFGGGTKLEIK ?
Ans: 0.00094

Q: Would you kindly share the measured koff for anti-ILT3 antibody 45G10 (antibody, V domains shown, Mouse monoclonal antibody from hybridoma) VH: EVQLVESGGGLVKPGGSLKLSCAASGFTFSDYGMHWVRQAPEKGLEWVAYIFSGSSTIYYADTVKGRFTISRDNAKNTLFLQMTSLRSEDTAMYYCARADGRGAMDYWGQGTSVTVSS VL: DVQMTQTTSSLSASLGDRVTISCRASQDISKFLNWYQQKPDGTVTLLIYYTSRLHSGVPSRFSGSGSGTDYSLTISNLDQEDIATYFCQQGNTLPWTFGGGTKLEIK ?
Ans: 5.1e-05

Q: Would you kindly share the measured koff for anti-ILT3 antibody 16C5 (antibody, V domains shown, Mouse monoclonal antibody from hybridoma) VH: EVQLQQSGPELVKPGASVKISCKASGYTFTDYNMDWVKQSHGKSLEWIGYIYPSNGGTGYNQKFKSKATLTVDKSSNTAYMELHSLTSEDSAVYYCARVPYYDYLYYYAMDYWGQGTSVTVSS VL: QIVLSQSPAILSASPGEKVTMACRASSSVSFMHWYQQKPGSSPQPWIYATSNLASGVPARFSGSGSGTSYSLTISRVEAEDAATYYCQQWSTNPYMYTFGGGTKLEIK ?
Ans: 0.0002

Q: Would you kindly share the measured koff for anti-ILT3 antibody 53F10 (antibody, V domains shown, Mouse monoclonal antibody from hybridoma) VH: EVQVVESGGGLVKPGGSLKLSCAASGFTFSDYGMHWVRQAPEKGLEWVAYISTGIITVYYADTVKGRFTMSRDNAKNTLFLQMTSLRSEDTAIYYCARADGRGAMDYWGQGTSVIVSS VL: DIQMTQTTSSLSASLGDRVTISCRASQDISNFLNWYQQKPDGTVTLLIYYTSRLHSGVPSRFSGSGSGTDYSLTISNLEQEDFATYFCQQGNTLPWTFGGGTKLEIK ?
Ans: 8e-05

Q: Would you kindly share the measured koff for anti-ILT3 antibody 3A3 (antibody, V domains shown, Mouse monoclonal antibody from hybridoma) VH: QVQLKESGPGLVAPSQSLSITCTVSGFSLTSYGVHWVRQPPGKGLEWLGVIWPGGTINYNSALMSRLSISKDNSKSQVFLKLNSLQTDDTAMYYCASDKYDGGWFAYWGQGTLVTVSA VL: DIVMTQSQKFMSTSVGDRVSITCKASQNVRTAVAWYQQKPGQSPEALIYLASNRHTGVPDRFTGSGSGTDFSLSISNVQSEDLADYFCLQHLNYPLTFGSGTKLEIK ?
Ans: 0.00065

Q: Would you kindly share the measured koff for anti-ILT3 antibody 5A7 (antibody, V domains shown, Mouse monoclonal antibody from hybridoma) VH: EVKLVESGGGLVKPGGSLKLSCAASGFTFSSYGMSWVRQTPEKRLEWVATISGGGSYTNYPDSVKGRLTISRDNAKKNLYLEMSSLRSEDTALYYCARREWRMTLYAMDYWGQGTSVTVSS VL: NIVLTQSPASLAVSLGQRATISCRASESVDSYGNSFMHWYQQKPGQAPKLLIYLTSNLESGVPARFSGSGSRTDFTLTIDPVEADDAATYYCQQNNEDPFTFGSGTKLEIK ?
Ans: 0.00011

Q: Would you kindly share the measured koff for anti-ILT3 antibody 48A6 (antibody, V domains shown, Mouse monoclonal antibody from hybridoma) VH: EVQLVESGGDLMKPGGSLKLSCAASGFTFSSYGMSWVRQTPDKRLEWVATISSGGTYTFYPDSVKGRFTISRDNAKNTLYLQMSSLKSEDTAMYYCARRGWLLHYYAMDYWGQGTSVTVSS VL: NIVLTQSPASLAVSLGQRATISCRPSESVDSFGNSFMHWFQQKPGQPPKLLIYLSSKLESGVPARFSGSGSRTDFTLTIDPVEADDAATYYCQQHNEDPFTFGSGTKLEIK ?
Ans: 1.8e-07
